Target: T1, Cynomolgus CXCR2 (cynomolgus, UniProt Q28519 3-353 (rhesus entry))
T1 construct: On transfected HEK293T or RBL-2H3 cells; native on cynomolgus neutrophils in the WBSC assay; also called cCXCR2; cynoCXCR2
T1 chain: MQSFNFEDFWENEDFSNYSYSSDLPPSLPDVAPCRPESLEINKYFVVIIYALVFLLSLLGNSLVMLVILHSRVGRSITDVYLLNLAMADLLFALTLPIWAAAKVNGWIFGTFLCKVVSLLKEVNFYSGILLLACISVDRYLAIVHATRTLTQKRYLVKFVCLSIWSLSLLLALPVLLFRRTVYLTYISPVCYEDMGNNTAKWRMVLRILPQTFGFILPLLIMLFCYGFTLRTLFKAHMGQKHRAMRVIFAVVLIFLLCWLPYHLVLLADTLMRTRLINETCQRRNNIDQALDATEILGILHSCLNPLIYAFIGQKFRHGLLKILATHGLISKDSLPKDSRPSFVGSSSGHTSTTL
Assay: FACS competition vs 3 nM FMAT-Blue Gro-α

binder: CXCR20024 (VHH, Bivalent: two VHH joined by a GlySer linker; also called 163E3-35GS-163E3; not shown: C-terminal c-myc tag and His6 tag coded by pAX100) EVQLVESGGGLVQPGGSLRLSCVASGRIFSSNAMGWFRQAPGKEREFVAAITWRSGGSAYYADSAKGRFTISRDNAKNTVYLQMNSLKPEDTAVYYCAAGGSSWLSFPPDYWGQGTQVTVSSGGGGSGGGGSGGGGSGGGGSGGGGSGGGGSGGGGSEVQLVESGGGLVQPGGSLRLSCVASGRIFSSNAMGWFRQAPGKEREFVAAITWRSGGSAYYADSAKGRFTISRDNAKNTVYLQMNSLKPEDTAVYYCAAGGSSWLSFPPDYWGQGTQVTVSS
% inhibition of max [%]: 95
//
binder: CXCR20035 (other, Biparatopic: two VHH joined by a GlySer linker; also called 54B12-35GS-163E3; 54B12-163E3; not shown: C-terminal c-myc tag and His6 tag coded by pAX100) EVQLVESGGGLVQAGGSLTLSCAVSGSTFRINTMGWYRRAPGKQRELVAARDRGGYINYVDSVKGRFTVSRDNAKPTMYLQMNSLKPEDTAVYYCHAGTQDRTGRNFDRWGQGTQVTVSSGGGGSGGGGSGGGGSGGGGSGGGGSGGGGSGGGGSEVQLVESGGGLVQPGGSLRLSCVASGRIFSSNAMGWFRQAPGKEREFVAAITWRSGGSAYYADSAKGRFTISRDNAKNTVYLQMNSLKPEDTAVYYCAAGGSSWLSFPPDYWGQGTQVTVSS
% inhibition of max [%]: 99
